Catalogue of growth AUC normalised to DMSO control readings, one per entry.
Tested on: P. vulgatus RND KO;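 further: active when median AUC fell below 0.1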
EXPERIMENTAL DETAILS: growth AUC normalised to DMSO control (median) (fraction of control); higher = less growth inhibition, active = hit call of the paper
CONDITIONS: 20 µM
Where a name gives a salt, the structure may show the parent alone.

### Prompt Tell us which growth AUC normalised to DMSO control value is on record for CCc1c(C)[nH]c2c1C(=O)C(CN1CCOCC1)CC2 (centres undefined) [Molindone hydrochloride]
### Response 1.03 (inactive)

### Prompt Tell us which growth AUC normalised to DMSO control value is on record for NS(=O)(=O)c1cc2c(cc1C(F)(F)F)NC(Cc1ccccc1)NS2(=O)=O (centres undefined) [Bendroflumethiazide]
### Response 0.962 (inactive)

### Prompt Tell us which growth AUC normalised to DMSO control value is on record for `Nc1c(CC(=O)O)cccc1C(=O)c1ccc(Br)cc1`
### Response 1.04 (inactive)

* * *

Test system: Vibrio cholerae
EXPERIMENTAL DETAILS: growth AUC normalised to DMSO control (fraction of control); higher = less growth inhibition, active = hit call of the paper
CONDITIONS: 20 µM
Counter-ions that a name gives are not always drawn.
Catalogue of growth AUC normalised to DMSO control readings, one per entry.
Could you keep your reply to the number by itself?

MOLECULE	growth AUC normalised to DMSO control
CC(=O)OCC(=O)[C@@]12N=C(C)O[C@@H]1C[C@H]1[C@@H]3CCC4=CC(=O)C=C[C@]4(C)[C@H]3[C@@H](O)C[C@@]12C	1

### Prompt Tell us which growth AUC normalised to DMSO control value is on record for CC1(C)[C@@H](OC(=O)CCC(=O)O)CC[C@]2(C)[C@H]3C(=O)C=C4[C@@H]5C[C@@](C)(C(=O)O)CC[C@]5(C)CC[C@@]4(C)[C@]3(C)CC[C@@H]12 [Carbenoxolone disodium salt]
### Response 0.971

### Prompt Tell us which growth AUC normalised to DMSO control value is on record for CCN(CC)CCNC(=O)c1cc(Cl)c(N)cc1OC [Metoclopramide monohydrochloride]
### Response 0.989

### Prompt Tell us which growth AUC normalised to DMSO control value is on record for `CC[C@H](c1ccc(O)cc1)[C@@H](CC)c1ccc(O)cc1`
### Response 0.932

### Prompt Tell us which growth AUC normalised to DMSO control value is on record for `CCCOc1ccccc1-c1nc2[nH]nnc2c(=O)[nH]1`
### Response 0.985

### Prompt Tell us which growth AUC normalised to DMSO control value is on record for CN1CCN(CCCN2c3ccccc3Sc3ccc(Cl)cc32)CC1 [Prochlorperazine dimaleate]
### Response 0.947

### Prompt Tell us which growth AUC normalised to DMSO control value is on record for `CC/C(=C(/CC)c1ccc(O)cc1)c1ccc(O)cc1`
### Response 0.93

### Prompt Tell us which growth AUC normalised to DMSO control value is on record for CNCCC=C1c2ccccc2CCc2ccccc21 [Nortriptyline hydrochloride]
### Response 0.937

### Prompt Tell us which growth AUC normalised to DMSO control value is on record for CCCC(=O)Nc1ccc(OCC(O)CNC(C)C)c(C(C)=O)c1 (stereo not given) [Acebutolol hydrochloride]
### Response 1.01

### Prompt Tell us which growth AUC normalised to DMSO control value is on record for O=C(Nc1ccccc1)OCC(CN1CCCCC1)OC(=O)Nc1ccccc1 (stereo not given) [Diperodon hydrochloride]
### Response 0.999

* * *

Tested on: Salmonella enterica typhimurium
EXPERIMENTAL DETAILS: growth AUC normalised to DMSO control (fraction of control); higher = less growth inhibition, active = hit call of the paper
CONDITIONS: 20 µM
Counter-ions that a name gives are not always drawn.
TEST READOUT: growth AUC normalised to DMSO control
Could you keep your reply to the number by itself?

### Prompt Name the value of growth AUC normalised to DMSO control reported for C=C[C@H]1CN2CC[C@H]1C[C@@H]2[C@@H](O)c1ccnc2ccc(OC)cc12 [Quinidine hydrochloride monohydrate] when tested on Salmonella enterica typhimurium.
### Response 0.991

### Prompt Name the value of growth AUC normalised to DMSO control reported for CC1CC(OC(=O)c2ccccc2O)CC(C)(C)C1 (stereo not drawn) [Homosalate] when tested on Salmonella enterica typhimurium.
### Response 1

* * *

System: P. vulgatus RND KO;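 further: active when median AUC fell below 0.1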
EXPERIMENTAL DETAILS: growth AUC normalised to DMSO control (median) (fraction of control); higher = less growth inhibition, active = hit call of the paper
CONDITIONS: 20 µM
Structures can show the parent of a compound that is named as a salt.
TEST READOUT: growth AUC normalised to DMSO control
Could you keep your reply to the number by itself?

Worked cases, growth AUC normalised to DMSO control given:
COMPOUND	growth AUC normalised to DMSO control
O=C(O[C@@H]1C[C@@H]2C[C@H]3C[C@H](C1)N2CC3=O)c1c[nH]c2ccccc12 [Dolasetron mesilate]	1.02
COC(=O)[C@@H]1[C@H]2C[C@H]3c4[nH]c5ccccc5c4CCN3C[C@@H]2CC[C@@H]1O [Yohimbine hydrochloride]	0.984
OCCN(CCO)c1nc(N2CCCCC2)c2nc(N(CCO)CCO)nc(N3CCCCC3)c2n1	1

# evaluate next
### Prompt Tell us which growth AUC normalised to DMSO control value is on record for CC(NCCc1ccc(O)cc1)C(O)c1ccc(O)cc1 (centres undefined) [Ritodrine hydrochloride]
### Response 1

* * *

Test system: Salmonella enterica typhimurium
EXPERIMENTAL DETAILS: growth AUC normalised to DMSO control (fraction of control); higher = less growth inhibition, active = hit call of the paper
CONDITIONS: 20 µM
Structures can show the parent of a compound that is named as a salt.
Catalogue of growth AUC normalised to DMSO control readings, one per entry.
Could you keep your reply to the number by itself?

COMPOUND	growth AUC normalised to DMSO control
O=C(O)Cc1ccccc1Nc1c(Cl)cccc1Cl [Diclofenac sodium]	0.975

### Prompt Name the value of growth AUC normalised to DMSO control reported for CC(Oc1ccccc1)C(=O)N[C@@H]1C(=O)N2[C@@H]1SC(C)(C)[C@@H]2C(=O)O (stereo partly drawn) [Phenethicillin potassium salt] when tested on Salmonella enterica typhimurium.
### Response 1.01

### Prompt Name the value of growth AUC normalised to DMSO control reported for `O=C(O)c1cn(-c2ccc(F)cc2)c2cc(N3CCNCC3)c(F)cc2c1=O` when tested on Salmonella enterica typhimurium.
### Response 0.0114

### Prompt Name the value of growth AUC normalised to DMSO control reported for `O=C(O)c1ccccc1Nc1cccc(C(F)(F)F)c1` when tested on Salmonella enterica typhimurium.
### Response 0.992

### Prompt Name the value of growth AUC normalised to DMSO control reported for CC/C(=C(\c1ccccc1)c1ccc(OCCN(C)C)cc1)c1ccccc1 [Tamoxifen citrate] when tested on Salmonella enterica typhimurium.
### Response 1.01

### Prompt Name the value of growth AUC normalised to DMSO control reported for CCN(CC)CCOC(=O)C1(C2CCCCC2)CCCCC1 [Dicyclomine hydrochloride] when tested on Salmonella enterica typhimurium.
### Response 0.935

### Prompt Name the value of growth AUC normalised to DMSO control reported for `CCn1cc(C(=O)O)c(=O)c2cc(F)c(N3CCNCC3)nc21` when tested on Salmonella enterica typhimurium.
### Response 0.00943

* * *

Tested on: Shigella flexneri
EXPERIMENTAL DETAILS: growth AUC normalised to DMSO control (fraction of control); higher = less growth inhibition, active = hit call of the paper
CONDITIONS: 20 µM
Structures can show the parent of a compound that is named as a salt.
If the reported growth AUC normalised to DMSO control equals or exceeds 1, assign True. If not, assign False.

MOLECULE	ASSIGNED CLASS
NC(=O)N/N=C/c1ccc([N+](=O)[O-])o1 [Nitrofural]	False
CN(C)CCOc1ccc(/C(=C(/CCCl)c2ccccc2)c2ccccc2)cc1 [Toremifene]	True

### Prompt Item CCCCc1oc2ccccc2c1C(=O)c1cc(I)c(OCCN(CC)CC)c(I)c1 [Amiodarone hydrochloride] with growth AUC normalised to DMSO control of 1 or above?
### Response True

### Prompt Item O=C(O)Cc1cc(I)c(Oc2ccc(O)c(I)c2)c(I)c1 [Tiratricol] with growth AUC normalised to DMSO control of 1 or above?
### Response False

### Prompt Item CO[C@@]1(NC(=O)Cc2cccs2)C(=O)N2C(C(=O)O)=C(COC(N)=O)CS[C@@H]21 [Cefoxitin sodium salt] with growth AUC normalised to DMSO control of 1 or above?
### Response False

* * *

Tested on: Salmonella enterica typhimurium
EXPERIMENTAL DETAILS: growth AUC normalised to DMSO control (fraction of control); higher = less growth inhibition, active = hit call of the paper
CONDITIONS: 20 µM
Structures can show the parent of a compound that is named as a salt.
TEST READOUT: growth AUC normalised to DMSO control
Could you keep your reply to the number by itself?

COMPOUND	TEST READOUT	TEST RESULT
CCCN(CCC)CCc1cccc2c1CC(=O)N2 [Ropinirole hydrochloride]	growth AUC normalised to DMSO control	0.997
CC(=O)OC(C)C[N+](C)(C)C (centres undefined) [Methacholine chloride]	growth AUC normalised to DMSO control	0.992
CC(COc1ccccc1)N(CCCl)Cc1ccccc1 (centres undefined) [Phenoxybenzamine hydrochloride]	growth AUC normalised to DMSO control	1.01

### Prompt Name the value of growth AUC normalised to DMSO control reported for CCOC1O[C@H]([C@@H](COCc2ccccc2)OCc2ccccc2)[C@H](OCc2ccccc2)[C@H]1O (some centres undefined) [Tribenoside] when tested on Salmonella enterica typhimurium.
### Response 1

### Prompt Name the value of growth AUC normalised to DMSO control reported for O=C1C(CC[S+]([O-])c2ccccc2)C(=O)N(c2ccccc2)N1c1ccccc1 (centres undefined) when tested on Salmonella enterica typhimurium.
### Response 0.996

### Prompt Name the value of growth AUC normalised to DMSO control reported for Cn1c(=O)c2c(ncn2CC(O)CO)n(C)c1=O (centres undefined) when tested on Salmonella enterica typhimurium.
### Response 0.986

### Prompt Name the value of growth AUC normalised to DMSO control reported for `Nc1ccc(C(=O)NCC(=O)O)cc1` when tested on Salmonella enterica typhimurium.
### Response 1.03

### Prompt Name the value of growth AUC normalised to DMSO control reported for `Cn1cnc2c1c(=O)[nH]c(=O)n2C` when tested on Salmonella enterica typhimurium.
### Response 1.03

### Prompt Name the value of growth AUC normalised to DMSO control reported for COc1ccc(CC(C)NCC(O)c2ccc(O)c(NC=O)c2)cc1 (centres undefined) [Formoterol fumarate] when tested on Salmonella enterica typhimurium.
### Response 1.01

Origin of measurements: the supplement of paper PMC12350171
